Give measured IC50 for each item. Keep answers brief.
Test system: CCRF-CEM
Experiment: Cytotoxicity against human CCRF-CEM cells after 72 hrs
Format: functional, cell-based
Just the number in nM, nothing appended.

Field IC50 (system: CCRF-CEM) for entry CN1CCC(NC(=O)c2cccc3c(NCCCCNCCCNc4c5ccccc5nc5c(C(=O)NC6CCN(C)CC6)cccc45)c4ccccc4nc23)CC1 = 340

Field IC50 (system: CCRF-CEM) for entry O=C(NCCN1CCCCC1)c1cccc2c(NCCCCCCNc3c4ccccc4nc4c(C(=O)NCCN5CCCCC5)cccc34)c3ccccc3nc12 = 200

Field IC50 (system: CCRF-CEM) for entry O=C(NCCN1CCCCC1)c1cccc2c(NCCNCCNCCNc3c4ccccc4nc4c(C(=O)NCCN5CCCCC5)cccc34)c3ccccc3nc12 = 270

Field IC50 (system: CCRF-CEM) for entry O=C(NCCN1CCCCC1)c1cccc2c(NCCCCNCCCNc3c4ccccc4nc4c(C(=O)NCCN5CCCCC5)cccc34)c3ccccc3nc12 = 230

Field IC50 (system: CCRF-CEM) for entry CN1CCC(NC(=O)c2cccc3c(NCCCCCCNc4c5ccccc5nc5c(C(=O)NC6CCN(C)CC6)cccc45)c4ccccc4nc23)CC1 = 210

Field IC50 (system: CCRF-CEM) for entry O=C(NCCN1CCCCC1)c1cccc2c(NCCCNCCCNc3c4ccccc4nc4c(C(=O)NCCN5CCCCC5)cccc34)c3ccccc3nc12 = 260

Field IC50 (system: CCRF-CEM) for entry CN1CCC(NC(=O)c2cccc3c(NCCCNCCCNc4c5ccccc5nc5c(C(=O)NC6CCN(C)CC6)cccc45)c4ccccc4nc23)CC1 = 680

---

System: CCRF-CEM
Test: Cell cycle arrest in human CCRF-CEM cells assessed as accumulation at G2/M phase after 24 hrs by flow cytometry
Format: functional, cell-based
The source made the active and inactive calls. The calls are words filed in the database; no cut-off is given here.
RESULT_TYPE: Activity

>>> print(df.to_string())
                              record_smiles  study_system    result
0  O=C(NCCN1CCCCC1)c1cccc2c(NCCCCCCCCNc3c4ccccc4nc4c(C(=O)NCCN5CCCCC5)cccc34)c3ccccc3nc12      CCRF-CEM  inactive
1  O=C(NCCN1CCCCC1)c1cccc2c(NCCN3CCN(CCNc4c5ccccc5nc5c(C(=O)NCCN6CCCCC6)cccc45)CC3)c3ccccc3nc12      CCRF-CEM  inactive
2  O=C(NCCN1CCCCC1)c1cccc2c(NCCNCCNCCNc3c4ccccc4nc4c(C(=O)NCCN5CCCCC5)cccc34)c3ccccc3nc12      CCRF-CEM  inactive

---

Test system: Escherichia coli
Assay: Binding affinity to Escherichia coli pBR322 DNA assessed as equivalence binding ratio by agarose gel electrophoresis
RESULT_TYPE: Ratio
# output: bare number, no unit

Form field Ratio, entry CN1CCC(NC(=O)c2cccc3c(NCCCCCCNc4c5ccccc5nc5c(C(=O)NC6CCN(C)CC6)cccc45)c4ccccc4nc23)CC1 : 0.25

Form field Ratio, entry O=C(NCCN1CCCCC1)c1cccc2c(NCCCNCCCNc3c4ccccc4nc4c(C(=O)NCCN5CCCCC5)cccc34)c3ccccc3nc12 : 0.14

Form field Ratio, entry O=C(NCCN1CCCCC1)c1cccc2c(NCCNCCNCCNc3c4ccccc4nc4c(C(=O)NCCN5CCCCC5)cccc34)c3ccccc3nc12 : 0.16

Form field Ratio, entry O=C(NCCN1CCCCC1)c1cccc2c(NCCCCCCNc3c4ccccc4nc4c(C(=O)NCCN5CCCCC5)cccc34)c3ccccc3nc12 : 0.14

Form field Ratio, entry CN1CCC(NC(=O)c2cccc3c(NCCCCNCCCNc4c5ccccc5nc5c(C(=O)NC6CCN(C)CC6)cccc45)c4ccccc4nc23)CC1 : 0.21

Form field Ratio, entry O=C(NCCN1CCCCC1)c1cccc2c(NCCN3CCN(CCNc4c5ccccc5nc5c(C(=O)NCCN6CCCCC6)cccc45)CC3)c3ccccc3nc12 : 0.13

Form field Ratio, entry O=C(NCCN1CCCCC1)c1cccc2c(NCCCCCCCCNc3c4ccccc4nc4c(C(=O)NCCN5CCCCC5)cccc34)c3ccccc3nc12 : 0.16

---

System: Escherichia coli
Test: Binding affinity to Escherichia coli pBR322 DNA assessed as equivalence binding ratio by agarose gel electrophoresis
RESULT_TYPE: Ratio

Form field Ratio, entry CN1CCC(NC(=O)c2cccc3c(NCCNCCNCCNc4c5ccccc5nc5c(C(=O)NC6CCN(C)CC6)cccc45)c4ccccc4nc23)CC1 : 0.11

Form field Ratio, entry CN1CCC(NC(=O)c2cccc3c(NCCCNCCCNc4c5ccccc5nc5c(C(=O)NC6CCN(C)CC6)cccc45)c4ccccc4nc23)CC1 : 0.24

Form field Ratio, entry O=C(NCCN1CCCCC1)c1cccc2c(NCCCCNCCCNc3c4ccccc4nc4c(C(=O)NCCN5CCCCC5)cccc34)c3ccccc3nc12 : 0.135

Form field Ratio, entry CN1CCC(NC(=O)c2cccc3c(NCCCCCCCCNc4c5ccccc5nc5c(C(=O)NC6CCN(C)CC6)cccc45)c4ccccc4nc23)CC1 : 0.175

---

System: CCRF-CEM
Assay: Cytotoxicity against human CCRF-CEM cells after 72 hrs
Type: functional, cell-based
*1 amine or outer side, *2 acyl side, *3 side chain or, on linkers, in order; H or OH if unused. Where a SMILES comes first, the peptide text is derived from it. Bridges are numbered along the chain shown (N, C = ends). Roman numbers before positions name the chains, in order. [ ]: non-standard residue; d: D form. Actinocin(1to9) = Cc1c2oc3c(C)ccc(C(=O)[*:2])c3nc-2c(C(=O)[*:1])c(N)c1=O; NMeV = CN[C@H](C(=O)O)C(C)C; Sar = CNCC(=O)O
Give measured IC50 for each item. Keep answers brief.
Just the number in nM, nothing appended.

Field IC50 (system: CCRF-CEM) for entry COc1cc(NS(C)(=O)=O)ccc1Nc1c2ccccc2nc2ccccc12 = 130

Field IC50 (system: CCRF-CEM) for entry Cc1c2oc3c(C)ccc(C(=O)N[C@@H]4C(=O)N[C@H](C(C)C)C(=O)N5CCC[C@H]5C(=O)N(C)CC(=O)N(C)[C@@H](C(C)C)C(=O)O[C@@H]4C)c3nc-2c(C(=O)N[C@@H]2C(=O)N[C@H](C(C)C)C(=O)N3CCC[C@H]3C(=O)N(C)CC(=O)N(C)[C@@H](C(C)C)C(=O)O[C@@H]2C)c(N)c1=O [DACTINOMYCIN] (I: T[dV]P[Sar][NMeV] / II: T[dV]P[Sar][NMeV]; ester I:1-I:C, II:1-II:C; linker I:N-II:N via Actinocin(1to9)) = 1.6

Field IC50 (system: CCRF-CEM) for entry CN1CCC(NC(=O)c2cccc3c(NCCCCCCCCNc4c5ccccc5nc5c(C(=O)NC6CCN(C)CC6)cccc45)c4ccccc4nc23)CC1 = 130

Field IC50 (system: CCRF-CEM) for entry O=C(NCCN1CCCCC1)c1cccc2c(NCCN3CCN(CCNc4c5ccccc5nc5c(C(=O)NCCN6CCCCC6)cccc45)CC3)c3ccccc3nc12 = 130

Field IC50 (system: CCRF-CEM) for entry CN(C)CCNC(=O)c1cccc2c(N)c3ccccc3nc12 = 120

Field IC50 (system: CCRF-CEM) for entry CN1CCC(NC(=O)c2cccc3c(NCCNCCNCCNc4c5ccccc5nc5c(C(=O)NC6CCN(C)CC6)cccc45)c4ccccc4nc23)CC1 = 1100

Field IC50 (system: CCRF-CEM) for entry CN1CCC(NC(=O)c2cccc3c(NCCN4CCN(CCNc5c6ccccc6nc6c(C(=O)NC7CCN(C)CC7)cccc56)CC4)c4ccccc4nc23)CC1 = 800

Field IC50 (system: CCRF-CEM) for entry O=C(NCCN1CCCCC1)c1cccc2c(NCCCCCCCCNc3c4ccccc4nc4c(C(=O)NCCN5CCCCC5)cccc34)c3ccccc3nc12 = 99
